Experimental details: Metabolic stability in human liver microsomes assessed as metabolic rate at 1 uM preincubated for 5 mins followed by NADPH addition and measured up to 30 mins by LC/MS-MS analysis
Format: ADME, Microsome
Condition details: 0.5 h
Examples of molecules with documented Drug metabolism follow.
Answer with the value and then the unit.

- Molecular string: "Cn1nccc1-c1cc(C(F)(F)F)ccc1[C@H]1CCc2cc(S(=O)(=O)Nc3ncccn3)ccc21"
  Measured attribute: "Drug metabolism"
  Result: "0.03 nmol/min/mg"
- Molecular string: "O=S(=O)(Nc1nccs1)c1ccc2c(c1)OCC[C@@H]2c1ccc(C(F)(F)F)cc1-n1ccnn1"
  Measured attribute: "Drug metabolism"
  Result: "0.02 nmol/min/mg"

Need Drug metabolism of Cc1ccc(-c2cc(C(F)(F)F)ccc2[C@H]2CCOc3cc(S(=O)(=O)Nc4ncccn4)ccc32)cn1 , thanks.
0 nmol/min/mg

# lookup: Drug metabolism of Cn1nccc1-c1cc(C(F)(F)F)ccc1[C@H]1CCOc2cc(S(=O)(=O)Nc3ncccn3)ccc21
0 nmol/min/mg

Reference source: ChEMBL document CHEMBL4627393
